# System: lambsquarters (Chenopodium album)
# Protocol Notes: Test C postemergence
# Assay type: in vivo
# Condition Set: Rate 62 g/ha, scale 0 to 100
Parameter Measured: Plant response rating, Lambsquarters

* CCC(CC)c1ccn(C2CCN(c3ccc(Br)c(OC)c3)C2=O)n1 (stereo not shown) [Compound 143] | 90
* CCC(C)c1ccn(C2SCN(c3cccc(OC(F)(F)F)c3)C2=O)n1 (stereo not shown) [Compound 40] | 20
* COc1cc(N2CCC(n3ccc(C(C)C)n3)C2=O)ccc1C (stereo not shown) [Compound 85] | 70
* Cc1ccc(N2CCC(n3ccc(C(C)(C)C)n3)C2=O)cc1I (stereo not shown) [Compound 122] | 100

----------
# System: velvetleaf (Abutilon theophrasti)
# Protocol Notes: Test C preemergence
# Assay type: in vivo
# Condition Set: preemergence, Rate 500 g/ha, visual evaluation after 12 to 14 days
Below, each entry is listed alongside its reported Plant response rating (0 to 100), Velvetleaf.
Parameter Measured: Plant response rating (0 to 100), Velvetleaf

- COc1cc(OC)cc(N2CCC(n3ccc(C(C)(C)C)n3)C2=O)c1 (centres unmarked): 0
- CCC(C)c1ccn(C2CCN(c3cccc(OC(C)C)c3)C2=O)n1 (centres unmarked): 40
- CCCC(C)c1ccn(C2OCN(c3cccc(OC(F)F)c3)C2=O)n1 (centres unmarked): 0
- CCC(C)c1ccn(C2CCN(c3ccc(C)c(OC)c3)C2=O)n1 (centres unmarked): 100
- CCCC(C)c1ccn(C2CCN(c3cccc(C(F)(F)F)c3)C2=O)n1 (centres unmarked): 0

----------
# Tested on: rice (Oryza saliva)
# Protocol Notes: Test C flooded paddy test
# Assay type: in vivo
# Condition Set: flooded paddy test, Rate 125 g/ha; scale 0 to 100 (0 no effect, 100 complete control)
Below, each entry is listed alongside its reported Plant response rating, Rice.
Parameter Measured: Plant response rating, Rice

- CC(C)OC(=O)c1cccc(N2CCC(n3ccc(C(C)(C)C)n3)C2=O)c1 (stereo not shown) [Compound 124]: 0
- CCCC(C)c1ccn(C2CCN(c3cccc(OCC)c3)C2=O)n1 (stereo not shown) [Compound 129]: 0
- CCOc1cccc(N2CCC(n3ccc(C(CC)CC)n3)C2=O)c1 (stereo not shown) [Compound 125]: 10
- CCOc1cccc(N2CCC(n3ccc(C(C)C)n3)C2=O)c1 (stereo not shown) [Compound 128]: 30
- CCC(CC)c1ccn(C2CCN(c3ccc(Br)c(OC)c3)C2=O)n1 (stereo not shown) [Compound 143]: 30
- CC(C)Oc1cccc(N2CCC(n3ccc(C(C)C)n3)C2=O)c1 (stereo not shown) [Compound 82]: 30
- CCCC(C)c1ccn(C2OCN(c3cccc(C(F)(F)F)c3)C2=O)n1 (stereo not shown) [Compound 89]: 0
- O=C1C(n2ccc(C3CC3)n2)OCN1c1cccc(C(F)(F)F)c1 (stereo not shown) [Compound 28]: 20
- CCCC(C)c1ccn(C2SCN(c3cccc(C(F)(F)F)c3)C2=O)n1 (stereo not shown) [Compound 92]: 0
- COc1cc(N2CCC(n3ccc(C(C)C)n3)C2=O)ccc1C (stereo not shown) [Compound 85]: 60
- CC(C)(C)c1ccn(C2CCN(c3cccc(OC(F)(F)C(F)F)c3)C2=O)n1 (stereo not shown) [Compound 48]: 0
- O=C1C(n2ccc(C3CCCCC3)n2)SCN1c1cccc(C(F)(F)F)c1 (stereo not shown) [Compound 52]: 0
- Cc1c(Cl)cc(N2CCC(n3ccc(C(C)(C)C)n3)C2=O)cc1Cl (stereo not shown) [Compound 74]: 0
- CCC(C)c1ccn(C2CCN(c3ccc(Cl)c(OC)c3)C2=O)n1 (stereo not shown) [Compound 119]: 40
- CC(C)(C)c1ccn(C2CCN(c3ccc(F)c(C(F)(F)F)c3)C2=O)n1 (stereo not shown) [Compound 146]: 50
- CCC(C)c1ccn(C2CCN(c3cccc(OC)c3)C2=O)n1 (stereo not shown) [Compound 95]: 20
- Cc1cn(C2CCN(c3cccc(C(F)(F)F)c3)C2=O)nc1C(C)C (stereo not shown) [Compound 17]: 0
- COc1cccc(N2CCC(n3ccc(C(C)(C)C)n3)C2=O)c1 (stereo not shown) [Compound 87]: 20
- Cc1ccc(N2CCC(n3ccc(C(C)(C)C)n3)C2=O)cc1OC(C)C (stereo not shown) [Compound 110]: 30

----------
# Tested on: woolly cupgrass (Eriochloa villosa)
# Protocol Notes: Test C preemergence
# Type: in vivo
# Condition Set: preemergence, Rate 250 g/ha, visual evaluation after 12 to 14 days
Parameter Measured: Plant response rating (0 to 100), Cupgrass, Woolly

* CC1(c2ccn(C3SCN(c4cccc(C(F)(F)F)c4)C3=O)n2)CC1 (centres unmarked) [Compound 64] | 90
* O=C1C(n2ccc(C3CCC3)n2)SCN1c1cccc(OC(F)(F)F)c1 (centres unmarked) [Compound 38] | 0
* CC(C)Oc1cccc(N2CCC(n3ccc(C(C)(C)C)n3)C2=O)c1 (centres unmarked) [Compound 70] | 100
* O=C1C(n2ccc(C3CCC3)n2)SCN1c1cccc(OC(F)F)c1 (centres unmarked) [Compound 45] | 70
* COc1cccc(N2CCC(n3ccc(C(C)(C)C)n3)C2=O)c1 (centres unmarked) [Compound 87] | 100

----------
# Test system: common ragweed (Ambrosia elatior)
# Protocol Notes: Test C preemergence
# Format: in vivo
# Condition Set: preemergence; Rate 125 g/ha; scale 0 to 100, 0 no effect, 100 complete control
# Excerpt: […]
Below, each entry is listed alongside its reported Plant response rating, Ragweed, Common.
Parameter Measured: Plant response rating, Ragweed, Common

- O=C1C(n2ccc(C3CCC3)n2)SCN1c1cccc(C(F)(F)F)c1 (stereo not drawn): 20
- CC(C)(C)c1ccn(C2CCN(c3ccc(Cl)c(Cl)c3)C2=O)n1 (stereo not drawn): 0
- CC(C)(C)c1ccn(C2CCN(c3ccc(Cl)c(Br)c3)C2=O)n1 (stereo not drawn): 0
- O=C1C(n2ccc(C3CCCCC3)n2)SCN1c1cccc(OC(F)(F)F)c1 (stereo not drawn): 30
- CC(C)(C)c1ccn(C2CCN(c3cccc(Br)c3)C2=O)n1 (stereo not drawn): 0
- CCC(C)c1ccn(C2OCN(c3cccc(OC(F)(F)F)c3)C2=O)n1 (stereo not drawn): 20
- O=C1C(n2ccc(C3CCCCC3)n2)OCN1c1cccc(C(F)(F)F)c1 (stereo not drawn): 0
- CC1(c2ccn(C3OCN(c4cccc(C(F)(F)F)c4)C3=O)n2)CC1 (stereo not drawn): 0
- CC(C)(C)c1ccn(C2SCN(c3cccc(OC(F)(F)F)c3)C2=O)n1 (stereo not drawn): 90

----------
Below, each entry is listed alongside its reported Plant response rating, Flatsedge.
# Test system: smallflower flatsedge (Cyperus difformis)
# Protocol Notes: Test C flooded paddy test
# Format: in vivo
# Condition Set: flooded paddy test, Rate 125 g/ha; scale 0 to 100 (0 no effect, 100 complete control)
Parameter Measured: Plant response rating, Flatsedge

* CCC(CC)c1ccn(C2SCN(c3cccc(C(F)(F)F)c3)C2=O)n1 (stereo not drawn) | 90
* CCC(CC)c1ccn(C2CCN(c3ccc(Cl)c(OC)c3)C2=O)n1 (stereo not drawn) | 100
* CCCCC(CCCC)c1ccn(C2OCN(c3cccc(OC(F)(F)F)c3)C2=O)n1 (stereo not drawn) | 0
* CCCC(C)c1ccn(C2OCN(c3cccc(OC(F)(F)F)c3)C2=O)n1 (stereo not drawn) | 70
* Cc1ccn(C2SCN(c3cccc(C(F)(F)F)c3)C2=O)n1 (stereo not drawn) | 0
* Cc1cccc(N2CCC(n3ccc(C(C)(C)C)n3)C2=O)c1 (stereo not drawn) | 50
* CC(C)(C)c1ccn(C2OCN(c3cccc(OC(F)(F)F)c3)C2=O)n1 (stereo not drawn) | 100
* CCOc1cccc(N2CCC(n3ccc(C(C)C)n3)C2=O)c1 (stereo not drawn) | 90
* Cc1ccc(N2CCC(n3ccc(C(C)(C)C)n3)C2=O)cc1OCCCl (stereo not drawn) | 50
* CC1(c2ccn(C3SCN(c4cccc(C(F)(F)F)c4)C3=O)n2)CC1 (stereo not drawn) | 100
* CCC(C)c1ccn(C2CCN(c3ccc(F)c(C(F)(F)F)c3)C2=O)n1 (stereo not drawn) | 80
* CCC(CC)c1ccn(C2OCN(c3cccc(OC(F)(F)F)c3)C2=O)n1 (stereo not drawn) | 100
* COc1cc(N2CCC(n3ccc(C(C)C)n3)C2=O)ccc1Cl (stereo not drawn) | 100
* CCCC(C)c1ccn(C2SCN(c3cccc(C(F)(F)F)c3)C2=O)n1 (stereo not drawn) | 100
* CCOc1cc(N2CCC(n3ccc(C(C)(C)C)n3)C2=O)ccc1C (stereo not drawn) | 90
* Cc1c(F)cc(N2CCC(n3ccc(C(C)(C)C)n3)C2=O)cc1Br (stereo not drawn) | 0
* CCC(CC)c1ccn(C2CCN(c3cccc(OC(C)C)c3)C2=O)n1 (stereo not drawn) | 90
* CSc1cccc(N2CCC(n3ccc(C(C)(C)C)n3)C2=O)c1 (stereo not drawn) | 0

----------
# Test system: Surinam grass (Brachiaria decumbens)
# Protocol Notes: Test B preemergence
# Assay type: in vivo
# Condition Set: preemergence; Rate 125 g/ha; scale of 0 to 100 where 0 is no effect and 100 is complete control; 13 to 15 days
Below, each entry is listed alongside its reported Plant response rating, Surinam grass.
Parameter Measured: Plant response rating, Surinam grass

• CC(C)Oc1cccc(N2CCC(n3ccc(C(C)C)n3)C2=O)c1 (stereo not drawn) = 90
• COc1cc(N2CCC(n3ccc(C(C)C)n3)C2=O)ccc1Br (stereo not drawn) = 100
• COc1cc(N2CCC(n3ccc(C(C)C)n3)C2=O)ccc1Cl (stereo not drawn) = 40
• CC(C)(C)c1ccn(C2CCN(c3cccc(OC(F)(F)C(F)F)c3)C2=O)n1 (stereo not drawn) = 0
• CCCC(C)c1ccn(C2CCN(c3cccc(OCC)c3)C2=O)n1 (stereo not drawn) = 90
• CCCCC(CCCC)c1ccn(C2SCN(c3cccc(C(F)(F)F)c3)C2=O)n1 (stereo not drawn) = 0
• COC(=O)c1cccc(N2CCC(n3ccc(C(C)(C)C)n3)C2=O)c1 (stereo not drawn) = 50
• CCCOC(=O)c1cccc(N2CCC(n3ccc(C(C)(C)C)n3)C2=O)c1 (stereo not drawn) = 0
• CCC(CC)c1ccn(C2CCN(c3ccc(Br)c(OC)c3)C2=O)n1 (stereo not drawn) = 80
